# protocol-notes: AUC (0 to infinity) in female C57BL/6J mouse brain at 50 mg/kg, ip by LC-MS/MS analysis
# Format: ADME, organism-based
metric: AUC(0-inf) (nM·h)
// return numeric value only (unit: nM·h, not printed)

Quick one: AUC(0-inf) of C[C@@H](C(=O)Nc1cccc(OC2CCN(C(=O)CN3CCC(N4CCN(c5ccc6c(c5)C(=O)N(C5CCC(=O)NC5=O)C6=O)CC4)CC3)CC2)c1)[C@H]1CC[C@@H](c2ccnc3ccc(F)cc32)CC1 (stereo partly specified) ? 1000

###

# target-or-test-system: Protein cereblon (Homo sapiens)
# Sequence (Q96SW2 whole entry): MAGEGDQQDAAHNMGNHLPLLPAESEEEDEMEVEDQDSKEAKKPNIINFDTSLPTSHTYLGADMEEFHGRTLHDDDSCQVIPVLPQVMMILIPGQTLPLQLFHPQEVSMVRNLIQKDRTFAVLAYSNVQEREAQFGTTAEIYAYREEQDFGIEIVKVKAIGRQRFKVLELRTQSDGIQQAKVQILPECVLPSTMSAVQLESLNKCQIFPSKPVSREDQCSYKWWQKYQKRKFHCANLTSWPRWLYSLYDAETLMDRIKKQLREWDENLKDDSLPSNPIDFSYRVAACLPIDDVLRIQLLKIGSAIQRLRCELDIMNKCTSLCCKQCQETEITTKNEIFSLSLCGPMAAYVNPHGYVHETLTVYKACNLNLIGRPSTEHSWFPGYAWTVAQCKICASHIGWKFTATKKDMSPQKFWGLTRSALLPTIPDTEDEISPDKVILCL
metric: Kd (µM)
Reply numerically in µM, unit not repeated.

// lookup Kd for C[C@@H](C(=O)Nc1ccc(OC2CCN(C(=O)CCOCCOCCNc3cccc4c3C(=O)N(C3CCC(=O)NC3=O)C4=O)CC2)cc1)[C@H]1CC[C@@H](c2ccnc3ccc(F)cc32)CC1 (stereo partly specified) 0.29

###

Measured DC50 of individual entries
# target-or-test-system: Protein cereblon/Indoleamine 2,3-dioxygenase 1 (Homo sapiens, UniProt P14902+Q96SW2)
# protocol-notes: PROTAC activity at CRBN/N-terminal HiBiT-tagged IDO1 (unknown origin) transfected in human U87 cells assessed as induction of IDO1 degradation pretreated with IFN-gamma for 24 hrs followed by compound addition and measured after 24 hrs by Nano-Glo HiBiT assay
# Format: cell-based
# Sequence (P14902 whole entry, one chain of several): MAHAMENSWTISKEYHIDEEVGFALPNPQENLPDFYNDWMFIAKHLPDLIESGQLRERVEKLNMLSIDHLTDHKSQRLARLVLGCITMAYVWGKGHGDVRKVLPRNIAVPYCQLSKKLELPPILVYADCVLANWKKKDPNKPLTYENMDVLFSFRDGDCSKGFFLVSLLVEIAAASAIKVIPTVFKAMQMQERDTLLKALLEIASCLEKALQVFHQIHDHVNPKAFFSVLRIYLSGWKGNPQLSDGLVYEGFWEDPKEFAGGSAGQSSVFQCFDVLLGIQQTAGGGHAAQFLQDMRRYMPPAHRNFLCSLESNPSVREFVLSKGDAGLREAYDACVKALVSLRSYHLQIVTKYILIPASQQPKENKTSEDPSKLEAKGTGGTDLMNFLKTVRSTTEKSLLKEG

C[C@@H](C(=O)Nc1ccc(OC2CCN(C(=O)CCOCCN3CCN(c4ccc5c(c4)C(=O)N(C4CCC(=O)NC4=O)C5=O)CC3)CC2)cc1)[C@H]1CC[C@@H](c2ccnc3ccc(F)cc32)CC1 (some centres undefined)    > 10000 nM
C[C@@H](C(=O)Nc1ccc(Cl)c(OC2CCN(C(=O)CCOCCN3CCN(c4ccc5c(c4)C(=O)N(C4CCC(=O)NC4=O)C5=O)CC3)CC2)c1)[C@H]1CC[C@@H](c2ccnc3ccc(F)cc32)CC1 (some centres undefined)    > 10000 nM

Need DC50 of C[C@@H](C(=O)Nc1ccc(Cl)c(OC2CCN(C(=O)CCOCCN3CCN(c4cccc5c4C(=O)N(C4CCC(=O)NC4=O)C5=O)CC3)CC2)c1)[C@H]1CC[C@@H](c2ccnc3ccc(F)cc32)CC1 (some centres undefined) , thanks. > 10000 nM

###

# target-or-test-system: Protein cereblon/Indoleamine 2,3-dioxygenase 1 (Homo sapiens, UniProt P14902+Q96SW2)
# protocol-notes: PROTAC activity at CRBN/N-terminal HiBiT-tagged IDO1 (unknown origin) transfected in human U87 cells assessed as induction of IDO1 degradation by measuring maximum efficacy pretreated with IFN-gamma for 24 hrs followed by compound addition and measured after 24 hrs by Nano-Glo HiBiT assay relative to control
# Assay type: cell-based
# Sequence (P14902 whole entry, looked up, one chain of several): as the sequence (P14902 whole entry, one chain of several) above
Recorded Emax values for a group of compounds are listed next.

Below, 8 compounds whose answers are already recorded.
C[C@@H](C(=O)Nc1cccc(OC2CCN(C(=O)CN3CCC(N4CCN(c5ccc6c(c5)C(=O)N(C5CCC(=O)N(C)C5=O)C6=O)CC4)CC3)CC2)c1)[C@H]1CC[C@@H](c2ccnc3ccc(F)cc32)CC1 (some centres undefined)    < 10%
C[C@@H](C(=O)Nc1cccc(OC2CCN(C(=O)CCN3CCN(c4ccc5c(c4)C(=O)N(C4CCC(=O)NC4=O)C5=O)CC3)CC2)c1)[C@H]1CC[C@@H](c2ccnc3ccc(F)cc32)CC1 (some centres undefined)    < 10%
C[C@@H](C(=O)Nc1ccc(Cl)c(OC2CCN(C(=O)CCOCCN3CCN(c4cccc5c4C(=O)N(C4CCC(=O)NC4=O)C5=O)CC3)CC2)c1)[C@H]1CC[C@@H](c2ccnc3ccc(F)cc32)CC1 (some centres undefined)    < 10%
C[C@@H](C(=O)Nc1ccc(OC2CCN(C(=O)CCOCCOCCNc3cccc4c3C(=O)N(C3CCC(=O)NC3=O)C4=O)CC2)cc1)[C@H]1CC[C@@H](c2ccnc3ccc(F)cc32)CC1 (some centres undefined)    79%
C[C@@H](C(=O)Nc1ccc(OC2CCN(C(=O)CN3CCC(CN4CCN(c5ccc6c(c5)C(=O)N(C5CCC(=O)NC5=O)C6=O)CC4)CC3)CC2)cc1)[C@H]1CC[C@@H](c2ccnc3ccc(F)cc32)CC1 (some centres undefined)    26%
C[C@@H](C(=O)Nc1ccc(Cl)c(OC2CCN(C(=O)CCOCCOCCNc3cccc4c3C(=O)N(C3CCC(=O)NC3=O)C4=O)CC2)c1)[C@H]1CC[C@@H](c2ccnc3ccc(F)cc32)CC1 (some centres undefined)    < 10%
C[C@@H](C(=O)Nc1ccc(OC2CCN(C(=O)CCOCCN3CCN(c4cccc5c4C(=O)N(C4CCC(=O)NC4=O)C5=O)CC3)CC2)cc1)[C@H]1CC[C@@H](c2ccnc3ccc(F)cc32)CC1 (some centres undefined)    < 10%
C[C@@H](C(=O)Nc1ccc(Cl)c(OC2CCN(C(=O)CN3CCC(N4CCN(c5ccc6c(c5)C(=O)N(C5CCC(=O)NC5=O)C6=O)CC4)CC3)CC2)c1)[C@H]1CC[C@@H](c2ccnc3ccc(F)cc32)CC1 (some centres undefined)    51%

// Emax lookup, key: C[C@@H](C(=O)Nc1ccc(Cl)c(OC2CCN(C(=O)CCOCCOCCNc3ccc4c(c3)C(=O)N(C3CCC(=O)NC3=O)C4=O)CC2)c1)[C@H]1CC[C@@H](c2ccnc3ccc(F)cc32)CC1 (some centres undefined) < 10%

###

# protocol-notes: Half life in female C57BL/6J mouse brain at 50 mg/kg, ip by LC-MS/MS analysis
# Type: ADME, organism-based
metric: half-life (h)
Expressed in h, but write only the number.

Name the recorded half-life for C[C@@H](C(=O)Nc1cccc(OC2CCN(C(=O)CN3CCC(N4CCN(c5ccc6c(c5)C(=O)N(C5CCC(=O)NC5=O)C6=O)CC4)CC3)CC2)c1)[C@H]1CC[C@@H](c2ccnc3ccc(F)cc32)CC1 (stereo partly specified) . 11.8

###

# target-or-test-system: Protein cereblon/Indoleamine 2,3-dioxygenase 1 (Homo sapiens, UniProt P14902+Q96SW2)
# protocol-notes: PROTAC activity at CRBN/N-terminal HiBiT-tagged IDO1 (unknown origin) transfected in human U87 cells assessed as induction of IDO1 degradation by measuring maximum efficacy pretreated with IFN-gamma for 24 hrs followed by compound addition and measured after 24 hrs by Nano-Glo HiBiT assay relative to control
# Assay type: cell-based
Parameter: Emax. Scope: all listed entries.

Some compounds with known Emax results, for comparison:
C[C@@H](C(=O)Nc1ccc(Cl)c(OC2CCN(C(=O)CCOCCN3CCN(c4ccc5c(c4)C(=O)N(C4CCC(=O)NC4=O)C5=O)CC3)CC2)c1)[C@H]1CC[C@@H](c2ccnc3ccc(F)cc32)CC1 (stereo not given in full)    < 10%
C[C@@H](C(=O)Nc1cccc(OC2CCN(C(=O)CN3CCN(c4ccc5c(c4)C(=O)N(C4CCC(=O)NC4=O)C5=O)CC3)CC2)c1)[C@H]1CC[C@@H](c2ccnc3ccc(F)cc32)CC1 (stereo not given in full)    < 10%
C[C@@H](C(=O)Nc1ccc(OC2CCN(C(=O)CN3CCC(CN4CCN(c5cccc6c5C(=O)N(C5CCC(=O)NC5=O)C6=O)CC4)CC3)CC2)cc1)[C@H]1CC[C@@H](c2ccnc3ccc(F)cc32)CC1 (stereo not given in full)    < 10%

Endpoint output: Emax of C[C@@H](C(=O)Nc1cccc(OC2CCN(C(=O)CN3CCC(CN4CCN(c5ccc6c(c5)C(=O)N(C5CCC(=O)NC5=O)C6=O)CC4)CC3)CC2)c1)[C@H]1CC[C@@H](c2ccnc3ccc(F)cc32)CC1 (stereo not given in full) . Value? 67%

Also C[C@@H](C(=O)Nc1ccc(Cl)c(OC2CCN(C(=O)CN3CCC(CN4CCN(c5cccc6c5C(=O)N(C5CCC(=O)NC5=O)C6=O)CC4)CC3)CC2)c1)[C@H]1CC[C@@H](c2ccnc3ccc(F)cc32)CC1 (stereo not given in full) ? < 10%

###

# target-or-test-system: Protein cereblon/Indoleamine 2,3-dioxygenase 1 (Homo sapiens, UniProt P14902+Q96SW2)
# protocol-notes: PROTAC activity at CRBN/N-terminal HiBiT-tagged IDO1 (unknown origin) transfected in human U87 cells assessed as induction of IDO1 degradation pretreated with IFN-gamma for 24 hrs followed by compound addition and measured after 24 hrs by Nano-Glo HiBiT assay
# Format: cell-based
Could you mark each record Fulfilled if its DC50 falls strictly under 0.03 µM, and Not fulfilled if it equals or exceeds it?

Here are 2 molecules together with their reported answers.
C[C@@H](C(=O)Nc1ccc(OC2CCN(C(=O)CCOCCN3CCN(c4cccc5c4C(=O)N(C4CCC(=O)NC4=O)C5=O)CC3)CC2)cc1)[C@H]1CC[C@@H](c2ccnc3ccc(F)cc32)CC1 (stereo partly specified)    Not fulfilled
C[C@@H](C(=O)Nc1ccc(Cl)c(OC2CCN(C(=O)CCOCCOCCNc3cccc4c3C(=O)N(C3CCC(=O)NC3=O)C4=O)CC2)c1)[C@H]1CC[C@@H](c2ccnc3ccc(F)cc32)CC1 (stereo partly specified)    Not fulfilled

hey, is DC50 for C[C@@H](C(=O)Nc1ccc(Cl)c(OC2CCN(C(=O)CN3CCC(CN4CCN(c5cccc6c5C(=O)N(C5CCC(=O)NC5=O)C6=O)CC4)CC3)CC2)c1)[C@H]1CC[C@@H](c2ccnc3ccc(F)cc32)CC1 (stereo partly specified) lower than 0.03 µM or not? Not fulfilled

Then C[C@@H](C(=O)Nc1ccc(Cl)c(OC2CCN(C(=O)CN3CCC(N4CCN(c5ccc6c(c5)C(=O)N(C5CCC(=O)NC5=O)C6=O)CC4)CC3)CC2)c1)[C@H]1CC[C@@H](c2ccnc3ccc(F)cc32)CC1 (stereo partly specified) ? Fulfilled

Lookup C[C@@H](C(=O)Nc1cccc(OC2CCN(C(=O)CN3CCC(N4CCN(c5ccc6c(c5)C(=O)N(C5CCC(=O)NC5=O)C6=O)CC4)CC3)CC2)c1)[C@H]1CC[C@@H](c2ccnc3ccc(F)cc32)CC1 (stereo partly specified) Fulfilled

Moving on to C[C@@H](C(=O)Nc1cccc(OC2CCN(C(=O)CCN3CCN(c4ccc5c(c4)C(=O)N(C4CCC(=O)NC4=O)C5=O)CC3)CC2)c1)[C@H]1CC[C@@H](c2ccnc3ccc(F)cc32)CC1 (stereo partly specified) Not fulfilled

Okay, and C[C@@H](C(=O)Nc1ccc(OC2CCN(C(=O)CN3CCC(CN4CCN(c5ccc6c(c5)C(=O)N(C5CCC(=O)NC5=O)C6=O)CC4)CC3)CC2)cc1)[C@H]1CC[C@@H](c2ccnc3ccc(F)cc32)CC1 (stereo partly specified) ? Not fulfilled

And then C[C@@H](C(=O)Nc1ccc(OC2CCN(C(=O)CCOCCOCCNc3cccc4c3C(=O)N(C3CCC(=O)NC3=O)C4=O)CC2)cc1)[C@H]1CC[C@@H](c2ccnc3ccc(F)cc32)CC1 (stereo partly specified) , what is it? Not fulfilled

And for C[C@@H](C(=O)Nc1ccc(OC2CCN(C(=O)CN3CCC(N4CCN(c5ccc6c(c5)C(=O)N(C5CCC(=O)NC5=O)C6=O)CC4)CC3)CC2)cc1)[C@H]1CC[C@@H](c2ccnc3ccc(F)cc32)CC1 (stereo partly specified) ? Not fulfilled
